The reported numbers originate from paper PMC10786891.

# target-of-assay: T1, EsCas13d, nuclease-dead (Eubacterium siraeum, UniProt B0MS50, R295A;H300A;R849A;H854A)
# T1 sequence: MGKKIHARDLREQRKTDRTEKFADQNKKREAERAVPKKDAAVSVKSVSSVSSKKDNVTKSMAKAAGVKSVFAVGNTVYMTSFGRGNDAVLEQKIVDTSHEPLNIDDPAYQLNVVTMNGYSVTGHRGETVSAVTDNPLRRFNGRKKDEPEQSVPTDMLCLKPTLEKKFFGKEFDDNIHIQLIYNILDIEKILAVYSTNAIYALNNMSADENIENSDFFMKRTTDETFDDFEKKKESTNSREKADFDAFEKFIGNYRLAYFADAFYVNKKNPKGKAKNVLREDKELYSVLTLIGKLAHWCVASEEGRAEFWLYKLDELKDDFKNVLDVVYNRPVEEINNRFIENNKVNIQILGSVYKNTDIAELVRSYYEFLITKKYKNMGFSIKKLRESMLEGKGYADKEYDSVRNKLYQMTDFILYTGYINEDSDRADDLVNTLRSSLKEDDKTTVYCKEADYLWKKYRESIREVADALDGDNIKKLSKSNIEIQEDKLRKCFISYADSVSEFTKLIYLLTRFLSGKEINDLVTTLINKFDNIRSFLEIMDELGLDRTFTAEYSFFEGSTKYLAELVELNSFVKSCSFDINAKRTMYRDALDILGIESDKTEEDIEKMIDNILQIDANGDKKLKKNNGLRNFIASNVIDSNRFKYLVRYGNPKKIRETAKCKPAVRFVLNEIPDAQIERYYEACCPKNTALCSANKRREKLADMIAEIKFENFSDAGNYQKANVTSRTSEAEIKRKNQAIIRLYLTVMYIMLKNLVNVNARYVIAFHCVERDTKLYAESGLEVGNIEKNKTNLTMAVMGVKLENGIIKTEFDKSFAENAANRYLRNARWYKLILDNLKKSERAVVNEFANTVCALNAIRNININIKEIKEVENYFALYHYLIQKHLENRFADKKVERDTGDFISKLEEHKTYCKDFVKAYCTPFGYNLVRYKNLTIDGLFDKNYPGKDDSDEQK
# experiment-summary: crRNA (strand 1, pre-loaded); Mg2+; 40 mM Tris-HCl pH 7.5, 150 mM NaCl, 6 mM MgCl2, 1 mM DTT, 0.1% Tween-20, 0.2 mg/ml BSA; 25 C; 10 min per concentration, then washed
# measurement-context: tags: His6-TwinStrep-SUMO cleaved; N-terminal SNAP kept (SNAP-Surface 488); label: 3' end held by stalled T7 RNA polymerase
For each entry below, report its Kd value.
Give bare numbers, in nM.

target 1 insC 3' of 19,insA 3' of 6 (mixed) RNA 1: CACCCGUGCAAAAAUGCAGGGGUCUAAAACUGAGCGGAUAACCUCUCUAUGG RNA 2: GGGAAUGGAUCCACAUCUACGAAUUCGUACCAUCAGAGAGGUUAUCCAGCUCACCGAGAUCGGAAGAGCACACGU: 38.2
target 1 insU 3' of 12,insU 3' of 12 (mixed) RNA 1: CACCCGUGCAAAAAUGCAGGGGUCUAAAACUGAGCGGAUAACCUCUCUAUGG RNA 2: GGGAAUGGAUCCACAUCUACGAAUUCGUACCAUAGAGAGGUUUUAUCCGCUCACCGAGAUCGGAAGAGCACACGU: 10.1
target 2 MT 5'PFS AUG 3'PFS AAA (mixed) RNA 1: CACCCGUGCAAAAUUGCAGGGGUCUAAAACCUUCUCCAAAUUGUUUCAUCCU RNA 2: GGGAAUGGAUCCACAUCUACGAAUUCAUGAGGAUGAAACAAUUUGGAGAAGAAAAGAUCGGAAGAGCACACGU: 7.8
target 1 C2G,C7A (mixed) RNA 1: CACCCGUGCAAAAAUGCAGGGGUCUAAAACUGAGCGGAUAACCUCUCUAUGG RNA 2: GGGAAUGGAUCCACAUCUACGAAUUCGUACCAUAGAGAGGUUAUACGCUGACCGAGAUCGGAAGAGCACACGU: 6.22

Provide Kd values for the following items, in order.
1. target 2 MT 5'PFS AAA 3'PFS CGA (mixed) RNA 1: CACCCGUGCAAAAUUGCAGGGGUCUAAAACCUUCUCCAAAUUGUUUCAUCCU RNA 2: GGGAAUGGAUCCACAUCUACGAAUUCAAAAGGAUGAAACAAUUUGGAGAAGCGAAGAUCGGAAGAGCACACGU
2. target 1 insC 3' of 16,insG 3' of 10 (mixed) RNA 1: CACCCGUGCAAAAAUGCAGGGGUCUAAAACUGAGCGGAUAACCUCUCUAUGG RNA 2: GGGAAUGGAUCCACAUCUACGAAUUCGUACCAUAGACGAGGUUGAUCCGCUCACCGAGAUCGGAAGAGCACACGU
3. target 1 insU 3' of 17,insG 3' of 2 (mixed) RNA 1: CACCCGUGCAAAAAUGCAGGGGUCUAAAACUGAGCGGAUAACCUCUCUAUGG RNA 2: GGGAAUGGAUCCACAUCUACGAAUUCGUACCAUAGUAGAGGUUAUCCGCUCGACCGAGAUCGGAAGAGCACACGU
4. target 1 A1C,A9G (mixed) RNA 1: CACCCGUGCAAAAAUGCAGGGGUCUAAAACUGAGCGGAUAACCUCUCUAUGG RNA 2: GGGAAUGGAUCCACAUCUACGAAUUCGUACCAUAGAGAGGUUGUCCGCUCCCCGAGAUCGGAAGAGCACACGU

Output line:
1. 3.4
2. 79
3. 19.8
4. 21.2
